target: human CXCL13 (Homo sapiens, UniProt O43927); test: SPR
Sequence (O43927 23-109): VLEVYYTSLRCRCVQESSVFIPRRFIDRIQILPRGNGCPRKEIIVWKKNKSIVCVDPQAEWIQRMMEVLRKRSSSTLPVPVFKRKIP
measurement-label: Kd (nM)
# value in nM; strip the unit string

Looking for the measured Kd of anti-CXCL13 C04 scFv-Fc fusion protein (Fc fusion, human) VH: QVQLVQSGAEVKKPGSSVKVSCKASGGTFSSYAISWVRQAPGQGLEWMGGIIPIFGTANYAQKFQGRVTITADESTSTAYMELSSLRSEDTAVYYCAREPDYYDSSGYYPIDAFDIWGQGTTVTVSS VL: QSALTQPASVSASPGQSITISCTGTSSDVGAYDWVSWYQQHPGKAPKLLIFDVNNRPSGVSHRFSGSKSGNTASLTISGLQAEDEADYYCSSAGIISVYVFGTGTKVTVL , can you help?
0.046
